For each entry below, report its White blood cells, Mean value.
assay: Evaluation of blood cell number in mouse; assay type: in vivo; conditions: male ICR mice, oral, repeated 7 or 9 days, 100 mg/kg
Where a name gives a salt, the structure may show the parent alone.

Would you please look over these solved cases?
compound	White blood cells, Mean
Cc1nnc(NC(=O)c2cc([C@@H]3C[C@H]3NCC3CC3)cs2)s1 [Example 82, dihydrochloride]	329 10 cells
O=C(NC1CCOCC1)c1csc([C@@H]2C[C@H]2NCC2CC2)c1 [Example 71, hydrochloride]	323 10 cells
Cc1nnc(NC(=O)c2cc([C@@H]3C[C@H]3NCC3CCOCC3)c(C)s2)s1 [Example 97, hydrochloride]	332 10 cells
Cc1sc(C(=O)Nc2cnn(C)c2)cc1[C@@H]1C[C@H]1NC1CCC1 [Example 123, hydrochloride]	380 10 cells

Consider the additional compound presented here.
## Input Report White blood cells, Mean for Cc1nnc(NC(=O)c2cc([C@@H]3C[C@H]3NC3CCC3)c(C)s2)s1 [Example 99, hydrochloride] please.
## Output 347 10 cells
